# experimental system: T1, human TIM-3 protein with hFc tag (hTIM-3-hFc protein) (human, UniProt Q8TDQ0 22-200)
# T1 construct: also called immunogen 1; human TIM-3 extracellular domain protein; not shown: human IgG Fc fragment (hFc) of the pCpC vector
# T1 sequence: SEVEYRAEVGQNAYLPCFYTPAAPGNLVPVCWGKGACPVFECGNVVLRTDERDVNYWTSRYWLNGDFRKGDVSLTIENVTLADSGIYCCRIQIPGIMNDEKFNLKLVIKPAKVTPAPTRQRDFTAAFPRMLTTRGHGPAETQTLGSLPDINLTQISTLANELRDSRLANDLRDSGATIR
# protocol summary: ELISA, coated hTIM-3-hFc; antibody 0.0001 nM
quantity: OD450
Number, no unit, nothing else.

Examples from the recorded data:
18D2H2 (TIM-3 antibody purified from hybridoma, chimeric antibody of Example 2) (antibody, V domains shown, From hybridoma of Harbour H2L2 transgenic mice: human variable regions, rat constant regions) VH: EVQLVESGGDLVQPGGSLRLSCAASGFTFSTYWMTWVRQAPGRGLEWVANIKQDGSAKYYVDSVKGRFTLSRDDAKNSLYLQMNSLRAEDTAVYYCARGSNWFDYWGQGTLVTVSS VL: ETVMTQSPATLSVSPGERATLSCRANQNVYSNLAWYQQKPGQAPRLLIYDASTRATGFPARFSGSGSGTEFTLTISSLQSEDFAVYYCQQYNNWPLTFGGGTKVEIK | 0.12
57F4E5 (TIM-3 antibody purified from hybridoma, chimeric antibody of Example 2) (antibody, V domains shown, From hybridoma of Harbour H2L2 transgenic mice: human variable regions, rat constant regions) VH: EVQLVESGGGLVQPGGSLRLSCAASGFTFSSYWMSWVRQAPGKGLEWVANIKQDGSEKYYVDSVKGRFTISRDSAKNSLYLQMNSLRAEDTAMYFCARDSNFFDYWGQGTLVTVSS VL: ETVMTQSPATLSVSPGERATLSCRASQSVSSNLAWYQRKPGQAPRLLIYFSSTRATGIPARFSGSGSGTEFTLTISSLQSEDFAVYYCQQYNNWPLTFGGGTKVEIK | 0.13
34B6D8 (TIM-3 antibody purified from hybridoma, chimeric antibody of Example 2) (antibody, V domains shown, From hybridoma of Harbour H2L2 transgenic mice: human variable regions, rat constant regions) VH: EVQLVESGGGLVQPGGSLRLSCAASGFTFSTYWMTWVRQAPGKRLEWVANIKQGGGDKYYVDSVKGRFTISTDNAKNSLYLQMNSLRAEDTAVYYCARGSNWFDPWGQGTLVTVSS VL: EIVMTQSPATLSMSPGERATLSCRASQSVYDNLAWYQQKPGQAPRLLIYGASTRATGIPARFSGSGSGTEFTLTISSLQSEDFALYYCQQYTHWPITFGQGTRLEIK | 0.12
39E5H1 (TIM-3 antibody purified from hybridoma, chimeric antibody of Example 2) (antibody, V domains shown, From hybridoma of Harbour H2L2 transgenic mice: human variable regions, rat constant regions) VH: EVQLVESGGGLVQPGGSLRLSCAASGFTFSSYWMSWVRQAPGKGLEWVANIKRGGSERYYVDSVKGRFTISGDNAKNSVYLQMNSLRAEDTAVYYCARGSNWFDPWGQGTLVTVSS VL: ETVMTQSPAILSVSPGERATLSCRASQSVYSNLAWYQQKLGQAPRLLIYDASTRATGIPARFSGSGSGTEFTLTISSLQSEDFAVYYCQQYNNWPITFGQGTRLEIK | 0.13
7A4F10 (TIM-3 antibody purified from hybridoma, chimeric antibody of Example 2) (antibody, V domains shown, From hybridoma of Harbour H2L2 transgenic mice: human variable regions, rat constant regions) VH: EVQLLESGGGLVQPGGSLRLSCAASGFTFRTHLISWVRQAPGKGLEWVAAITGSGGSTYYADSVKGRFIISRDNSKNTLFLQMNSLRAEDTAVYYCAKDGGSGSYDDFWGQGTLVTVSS VL: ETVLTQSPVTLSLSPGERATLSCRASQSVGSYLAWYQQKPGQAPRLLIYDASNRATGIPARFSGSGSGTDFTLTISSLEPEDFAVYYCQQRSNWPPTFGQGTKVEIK | 0.12

Next binder, please.
Give its OD450 value. Item: 134H3G6 (TIM-3 antibody purified from hybridoma, chimeric antibody of Example 2) (antibody, V domains shown, From hybridoma of Harbour H2L2 transgenic mice: human variable regions, rat constant regions) VH: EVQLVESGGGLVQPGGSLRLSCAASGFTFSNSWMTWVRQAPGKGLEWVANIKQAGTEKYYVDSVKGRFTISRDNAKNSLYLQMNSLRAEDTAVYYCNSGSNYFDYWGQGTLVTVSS VL: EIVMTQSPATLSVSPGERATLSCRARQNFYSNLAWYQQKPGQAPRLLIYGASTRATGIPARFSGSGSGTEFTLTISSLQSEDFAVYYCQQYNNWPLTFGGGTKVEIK
0.12
